Provenance of the data: patent US6914045B2

System: Streptococcus sp.
Test: in vitro antibacterial evaluation, MIC by broth dilution
Type: cell-based
Conditions: broth dilution, inoculum 5×10^5 CFU/mL, 18 hours at 35° C.; strain GC 4563
Mark Condition met for MIC Streptococcus pyogenes (GC 4563) under 8 µg/mL, Condition not met if at or over.

Molecule	Class Label
CC(c1ccccc1)C1NC(=O)CNC(=O)C(CO)NC(=O)C(C(O)C2CNC(=N)N2C2OC(CO)C(O)C(O)C2O)NC(=O)C(C(O)C2CNC(=N)N2)NC(=O)C(Cc2ccc(OC3OC(CO)C(OC4OC(CO)C(O)C5OC6(CCCCCCCCCCCC6)OC45)C(O)C3O)cc2)NC1=O (stereo not drawn) [Example 210a]	Condition met
CC(C)=CCN1CC(C(O)C2NC(=O)C(C(O)C3CNC(=N)N3)NC(=O)C(Cc3ccc(OC4OC(CO)C(OC5OC6COC7(OC6C(O)C5O)C5CC6CC(C5)CC7C6)C(O)C4O)cc3)NC(=O)C(C(C)c3ccccc3)NC(=O)CNC(=O)C(CO)NC2=O)N(C2OC(CO)C(O)C(O)C2O)C1=N (stereo not drawn) [Example 225]	Condition met
CC(c1ccccc1)C1NC(=O)CNC(=O)C(CO)NC(=O)C(C(O)C2CNC(=N)N2C2OC(CO)C(O)C(O)C2O)NC(=O)C(C(O)C2CNC(=N)N2)NC(=O)C(Cc2ccc(OC3OC(CO)C(OC4OC5COC(c6ccc(-c7cccs7)cc6)OC5C(O)C4O)C(O)C3O)cc2)NC1=O (stereo not drawn) [Example 163]	Condition met
CC(c1ccccc1)C1NC(=O)CNC(=O)C(CO)NC(=O)C(CC2CNC(=N)N2C2OC(CO)C(O)C(O)C2O)NC(=O)C(CC2CNC(=N)N2)NC(=O)C(Cc2ccc(OC3OC(CO)C(OC4OC(COCc5ccc(OCc6ccccc6)cc5)C(O)C(O)C4O)C(O)C3O)cc2)NC1=O (stereo not drawn) [Example 246]	Condition met
CC(C)=CCCC(C)=CCCC(C)=CCOc1cccc(C2OCC3OC(OC4C(CO)OC(Oc5ccc(CC6NC(=O)C(C(C)c7ccccc7)NC(=O)CNC(=O)C(CO)NC(=O)C(C(O)C7CNC(=N)N7C7OC(CO)C(O)C(O)C7O)NC(=O)C(C(O)C7CNC(=N)N7)NC6=O)cc5)C(O)C4O)C(O)C(O)C3O2)c1 (stereo not drawn) [Example 185]	Condition not met

[in] In the record for CC(c1ccccc1)C1NC(=O)CNC(=O)C(CO)NC(=O)C(C(O)C2CNC(=N)N2C2OC(CO)C(O)C(O)C2O)NC(=O)C(C(O)C2CNC(=N)N2)NC(=O)C(Cc2ccc(OC3OC(CO)C(OC4OC5COC(c6cccc(OCc7ccc([N+](=O)[O-])cc7)c6)OC5C(O)C4O)C(O)C3O)cc2)NC1=O (stereo not drawn) [Example 182] , is MIC Streptococcus pyogenes (GC 4563) less than 8 µg/mL?
[out] Condition not met

[in] In the record for CC(c1ccccc1)C1NC(=O)CNC(=O)C(CO)NC(=O)C(C(O)C2CN(Cc3ccc(C(F)(F)F)cc3)C(=N)N2C2OC(CO)C(O)C(O)C2O)NC(=O)C(C(O)C2CNC(=N)N2)NC(=O)C(Cc2ccc(OC3OC(CO)C(OC4OC5COC6(OC5C(O)C4O)C4CC5CC(C4)CC6C5)C(O)C3O)cc2)NC1=O (stereo not drawn) [Example 226] , is MIC Streptococcus pyogenes (GC 4563) less than 8 µg/mL?
[out] Condition met
